The origin of these recorded values is patent US9796753B2.

test system: CNS SF-539; assay: COMPARE screening (NCI human cancer cell line screen), cytotoxicity GI50; assay type: cell-based
recorded-endpoint: GI50 (nM)

1. COc1cc2c3c(n(CCCN4CCN(C)CC4)c(=O)c2cc1OC)-c1cc2c(cc1C3=O)OCO2 [Compound 5t] :: 17800
2. O=C1c2ccccc2-c2c1c1ccc([N+](=O)[O-])cc1c(=O)n2CCCN1CCOCC1 [Compound 5bi] :: 95
3. COc1ccc2c(c1)C(=O)c1c-2n(CCCN2CCOCC2)c(=O)c2ccccc12 [Compound 5bk] :: 1950

* * *

The entries below come with measured GI50 values attached.
test system: prostate DU-145; assay: COMPARE screening (NCI human cancer cell line screen), cytotoxicity GI50; assay type: cell-based; conditions: Homo sapiens, DU-145, read-out: cytotoxicity (GI50) prostate DU-145
recorded-endpoint: GI50 (µM)

1) Cl.NCCCCCCCCCCCCn1c2c(c3ccccc3c1=O)C(=O)c1ccccc1-2 [Compound 5av, Hydrochloride] :: 19.1
2) Cl.NCCCCCCn1c2c(c3ccccc3c1=O)C(=O)c1ccccc1-2 [Compound 5ap, Hydrochloride] :: 0.603
3) Cl.O=C1c2ccccc2-c2c1c1ccccc1c(=O)n2CCc1ccccn1 [Compound 5ay, Hydrochloride] :: 74.1
4) Cl.NCCCCCCCCCn1c2c(c3ccccc3c1=O)C(=O)c1ccccc1-2 [Compound 5as, Hydrochloride] :: 6.03

* * *

system: prostate DU-145; experiment: COMPARE screening (NCI human cancer cell line screen), cytotoxicity GI50; format: cell-based; conditions: prostate DU-145; concentration corresponding to 50% growth inhibition; read-out: cytotoxicity (GI50 in μM) prostate DU-145
recorded-endpoint: GI50

1) CC(C)(C)OC(=O)N(CCCn1c2c(c3ccccc3c1=O)C(=O)c1ccccc1-2)CCN(CCCn1c2c(c3ccccc3c1=O)C(=O)c1ccccc1-2)C(=O)OC(C)(C)C [Compound 13b] :: > 50.1 µM
2) COc1cc2c3c(n(CCCNCCCNCCCn4c5c(c6cc(OC)c(OC)cc6c4=O)C(=O)c4ccccc4-5)c(=O)c2cc1OC)-c1ccccc1C3=O.O=C(O)C(F)(F)F.O=C(O)C(F)(F)F [Compound 14l] :: 19.5 µM
3) O=C(O)C(F)(F)F.O=C(O)C(F)(F)F.O=C1c2ccccc2-c2c1c1ccc([N+](=O)[O-])cc1c(=O)n2CCCNCCCNCCCn1c2c(c3ccc([N+](=O)[O-])cc3c1=O)C(=O)c1ccccc1-2 [Compound 14n] :: 0.912 µM
4) O=C(O)C(F)(F)F.O=C(O)C(F)(F)F.O=C1c2ccccc2-c2c1c1ccccc1c(=O)n2CCNCCCNCCn1c2c(c3ccccc3c1=O)C(=O)c1ccccc1-2 [Compound 14d] :: 0.079 µM
5) CC(C)(C)OC(=O)N(CCCN(CCn1c2c(c3ccccc3c1=O)C(=O)c1ccccc1-2)C(=O)OC(C)(C)C)CCn1c2c(c3ccccc3c1=O)C(=O)c1ccccc1-2 [Compound 13a] :: > 50.1 µM

* * *

tested on: melanoma UACC-62; assay: COMPARE screening (NCI human cancer cell line screen), cytotoxicity GI50; type: cell-based
recorded-endpoint: log10(GI50) (log10 of the value in nM)

1) CC(C)(C)OC(=O)NCCCCCCCCCn1c2c(c3ccccc3c1=O)C(=O)c1ccccc1-2 :: 4.24
2) CN(C)CCCn1c2c(c3ccccc3c1=O)C(=O)c1ccccc1-2 :: 2.71
3) CC(C)(C)OC(=O)NCCCCCCCCCCn1c2c(c3ccccc3c1=O)C(=O)c1ccccc1-2 :: 4.64
4) COc1ccc2c(c1)C(=O)c1c-2n(CCCNCCO)c(=O)c2ccccc12.Cl :: 2.74
5) CC(C)(C)OC(=O)NCCCCCCCCCCCCn1c2c(c3ccccc3c1=O)C(=O)c1ccccc1-2 :: 4.44
6) O=C1c2ccccc2-c2c1c1ccccc1c(=O)n2CCCn1ccnc1 :: 2.90
7) COc1cc2c3c(n(CCCN(C)C)c(=O)c2cc1OC)-c1ccccc1C3=O :: 3.82
8) O=C1c2ccccc2-c2c1c1ccccc1c(=O)n2CCN1CCOCC1 :: 4.47
9) CN(C)CCCn1c2c(c3cc4c(cc3c1=O)OCO4)C(=O)c1ccccc1-2 :: 2.48
10) CC(C)(C)OC(=O)NCCCCCCCCn1c2c(c3ccccc3c1=O)C(=O)c1ccccc1-2 :: 4.19
11) COc1cc2c3c(n(CCCN4CCC(N)CC4)c(=O)c2cc1OC)-c1cc2c(cc1C3=O)OCO2.Cl.Cl [Compound 5u, Dihydrochloride] :: 3.11
12) COc1ccc2c(c1)C(=O)c1c-2n(CCCN2CCOCC2)c(=O)c2ccccc12 :: 3.20
